# Target: USP7 (Homo sapiens, UniProt Q93009)
# Construct: USP7, construct USP7 (208-1102) 6*His, Viva Biotech; 6xHis (C); purchased Viva Biotech
# Sequence (Q93009 208-1102): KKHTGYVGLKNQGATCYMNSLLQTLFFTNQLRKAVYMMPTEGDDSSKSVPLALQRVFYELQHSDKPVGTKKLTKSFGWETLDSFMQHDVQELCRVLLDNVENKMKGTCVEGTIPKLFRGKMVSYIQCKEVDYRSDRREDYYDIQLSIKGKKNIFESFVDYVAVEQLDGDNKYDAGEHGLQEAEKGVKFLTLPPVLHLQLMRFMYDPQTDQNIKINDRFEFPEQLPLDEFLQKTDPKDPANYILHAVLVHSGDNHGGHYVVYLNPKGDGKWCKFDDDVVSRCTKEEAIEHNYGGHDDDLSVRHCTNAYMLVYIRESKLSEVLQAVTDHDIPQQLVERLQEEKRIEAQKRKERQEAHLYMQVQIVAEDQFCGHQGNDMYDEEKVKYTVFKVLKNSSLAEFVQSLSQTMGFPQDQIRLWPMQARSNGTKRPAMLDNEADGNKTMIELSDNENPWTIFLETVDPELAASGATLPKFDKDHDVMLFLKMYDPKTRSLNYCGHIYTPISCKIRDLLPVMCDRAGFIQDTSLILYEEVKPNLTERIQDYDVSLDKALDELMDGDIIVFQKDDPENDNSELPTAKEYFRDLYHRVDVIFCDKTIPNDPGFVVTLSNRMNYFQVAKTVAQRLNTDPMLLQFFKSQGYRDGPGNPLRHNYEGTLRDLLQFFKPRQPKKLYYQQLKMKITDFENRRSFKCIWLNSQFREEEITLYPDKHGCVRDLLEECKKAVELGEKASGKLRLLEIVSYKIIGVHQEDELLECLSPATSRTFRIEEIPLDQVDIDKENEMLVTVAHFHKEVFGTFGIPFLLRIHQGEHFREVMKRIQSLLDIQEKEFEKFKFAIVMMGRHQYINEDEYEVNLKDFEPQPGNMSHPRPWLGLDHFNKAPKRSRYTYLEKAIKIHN
# Test details: USP7 Assay A (Ubitquin-Rhodamine 110 Assay)
# Type: biochemical
# Setup conditions: USP7 activity in USP7 assay A and B (table does not say which assay per compound); read-out: USP7_IC50
Listed here: items and their measured IC50.

Example compounds with recorded IC50:
INSERT INTO results (compound, target, parameter_measured, measurement) VALUES
  ('O=C(C[C@H](C(F)F)n1cc(F)cn1)N1CCC(O)(Cn2cnc3c(cnn3-c3ccc(F)cc3)c2=O)CC1', 'USP7 (Homo sapiens, UniProt Q93009)', 'IC50', '< 0.2 µM'),
  ('O=C(C1CC1)N1CCC(O)(Cn2cnc3c(ccn3-c3ccc(F)c(CN4CCCCC4)c3)c2=O)CC1', 'USP7 (Homo sapiens, UniProt Q93009)', 'IC50', '1 to 10 µM'),
  ('O=C(c1ocnc1Cc1ccccc1)N1CCC(O)(Cn2cnc3c(cnn3-c3ccccc3)c2=O)CC1', 'USP7 (Homo sapiens, UniProt Q93009)', 'IC50', '> 10 µM'),
  ('Cc1cc2c(=O)n(CC3(O)CCN(C(=O)c4cnc(C5CC5)o4)CC3)cnc2n1-c1ccc(F)cc1', 'USP7 (Homo sapiens, UniProt Q93009)', 'IC50', '0.2 to 1 µM'),
  ('O=C(c1ccc(-c2cnn3c2OCCC3)cc1)N1CCC(O)(Cn2cnc3c(cnn3-c3ccc(F)cc3)c2=O)CC1', 'USP7 (Homo sapiens, UniProt Q93009)', 'IC50', '0.2 to 1 µM'),
  ('O=C(c1cnc(NC2CC2)o1)N1CCC(O)(Cn2cnc3c(cnn3-c3ccc(Cl)cc3)c2=O)CC1', 'USP7 (Homo sapiens, UniProt Q93009)', 'IC50', '0.2 to 1 µM'),
  ('O=C(C1CCC(Nc2cccc(F)n2)CC1)N1CCC(O)(Cn2cnc3c(cnn3-c3ccc(F)cc3)c2=O)CC1 (stereo not drawn) [Compound I-1023]', 'USP7 (Homo sapiens, UniProt Q93009)', 'IC50', '< 0.2 µM'),
  ('O=C(C1CCC(Oc2cnccn2)CC1)N1CCC(O)(Cn2cnc3c(cnn3-c3ccc(F)cc3)c2=O)CC1 (stereo not drawn) [Compound I-1021]', 'USP7 (Homo sapiens, UniProt Q93009)', 'IC50', '0.2 to 1 µM');

Enquiry: Quick one: IC50 of CC1(C(=O)N2CCC(O)(Cn3cnc4c(cnn4-c4cccc(OCC5CC(F)(F)C5)c4)c3=O)CC2)CC1 ?
Return: 0.2 to 1 µM

Enquiry: Quick one: IC50 of O=C(c1ccc(F)cc1)N1CCC(O)(Cn2cnc3c(cnn3-c3ccc(N4CCCn5ccnc54)cc3)c2=O)CC1 ?
Return: 0.2 to 1 µM

Enquiry: Quick one: IC50 of CC1(C(=O)N2CCC(O)(Cn3cnc4c(cnn4-c4ccc(-c5cnn(C(F)F)c5)cc4)c3=O)CC2)CCC1 ?
Return: < 0.2 µM

Enquiry: Quick one: IC50 of CC1CN(c2cccc(-n3ncc4c(=O)n(CC5(O)CCN(C(=O)C6(C)CC6)CC5)cnc43)c2)CC(C)N1C (stereo not drawn) ?
Return: < 0.2 µM

Enquiry: Quick one: IC50 of CC1(C(=O)N2CCC(O)(Cn3cnc4c(cnn4-c4ccc(N5CCC(F)CC5)cc4)c3=O)CC2)CC1 ?
Return: 0.2 to 1 µM

Enquiry: Quick one: IC50 of CC1(C(=O)N2CCC(O)(Cn3cnc4c(cnn4-c4ccc(-c5cnn(C6CCOCC6)c5)cc4)c3=O)CC2)CCC1 ?
Return: < 0.2 µM

These measurements were taken from patent US9902728B2.
